- system.name: Fatty acid synthase (Homo sapiens) (UniProt P49327)
- Sequence (P49327 whole entry, looked up, the tested form may be a part): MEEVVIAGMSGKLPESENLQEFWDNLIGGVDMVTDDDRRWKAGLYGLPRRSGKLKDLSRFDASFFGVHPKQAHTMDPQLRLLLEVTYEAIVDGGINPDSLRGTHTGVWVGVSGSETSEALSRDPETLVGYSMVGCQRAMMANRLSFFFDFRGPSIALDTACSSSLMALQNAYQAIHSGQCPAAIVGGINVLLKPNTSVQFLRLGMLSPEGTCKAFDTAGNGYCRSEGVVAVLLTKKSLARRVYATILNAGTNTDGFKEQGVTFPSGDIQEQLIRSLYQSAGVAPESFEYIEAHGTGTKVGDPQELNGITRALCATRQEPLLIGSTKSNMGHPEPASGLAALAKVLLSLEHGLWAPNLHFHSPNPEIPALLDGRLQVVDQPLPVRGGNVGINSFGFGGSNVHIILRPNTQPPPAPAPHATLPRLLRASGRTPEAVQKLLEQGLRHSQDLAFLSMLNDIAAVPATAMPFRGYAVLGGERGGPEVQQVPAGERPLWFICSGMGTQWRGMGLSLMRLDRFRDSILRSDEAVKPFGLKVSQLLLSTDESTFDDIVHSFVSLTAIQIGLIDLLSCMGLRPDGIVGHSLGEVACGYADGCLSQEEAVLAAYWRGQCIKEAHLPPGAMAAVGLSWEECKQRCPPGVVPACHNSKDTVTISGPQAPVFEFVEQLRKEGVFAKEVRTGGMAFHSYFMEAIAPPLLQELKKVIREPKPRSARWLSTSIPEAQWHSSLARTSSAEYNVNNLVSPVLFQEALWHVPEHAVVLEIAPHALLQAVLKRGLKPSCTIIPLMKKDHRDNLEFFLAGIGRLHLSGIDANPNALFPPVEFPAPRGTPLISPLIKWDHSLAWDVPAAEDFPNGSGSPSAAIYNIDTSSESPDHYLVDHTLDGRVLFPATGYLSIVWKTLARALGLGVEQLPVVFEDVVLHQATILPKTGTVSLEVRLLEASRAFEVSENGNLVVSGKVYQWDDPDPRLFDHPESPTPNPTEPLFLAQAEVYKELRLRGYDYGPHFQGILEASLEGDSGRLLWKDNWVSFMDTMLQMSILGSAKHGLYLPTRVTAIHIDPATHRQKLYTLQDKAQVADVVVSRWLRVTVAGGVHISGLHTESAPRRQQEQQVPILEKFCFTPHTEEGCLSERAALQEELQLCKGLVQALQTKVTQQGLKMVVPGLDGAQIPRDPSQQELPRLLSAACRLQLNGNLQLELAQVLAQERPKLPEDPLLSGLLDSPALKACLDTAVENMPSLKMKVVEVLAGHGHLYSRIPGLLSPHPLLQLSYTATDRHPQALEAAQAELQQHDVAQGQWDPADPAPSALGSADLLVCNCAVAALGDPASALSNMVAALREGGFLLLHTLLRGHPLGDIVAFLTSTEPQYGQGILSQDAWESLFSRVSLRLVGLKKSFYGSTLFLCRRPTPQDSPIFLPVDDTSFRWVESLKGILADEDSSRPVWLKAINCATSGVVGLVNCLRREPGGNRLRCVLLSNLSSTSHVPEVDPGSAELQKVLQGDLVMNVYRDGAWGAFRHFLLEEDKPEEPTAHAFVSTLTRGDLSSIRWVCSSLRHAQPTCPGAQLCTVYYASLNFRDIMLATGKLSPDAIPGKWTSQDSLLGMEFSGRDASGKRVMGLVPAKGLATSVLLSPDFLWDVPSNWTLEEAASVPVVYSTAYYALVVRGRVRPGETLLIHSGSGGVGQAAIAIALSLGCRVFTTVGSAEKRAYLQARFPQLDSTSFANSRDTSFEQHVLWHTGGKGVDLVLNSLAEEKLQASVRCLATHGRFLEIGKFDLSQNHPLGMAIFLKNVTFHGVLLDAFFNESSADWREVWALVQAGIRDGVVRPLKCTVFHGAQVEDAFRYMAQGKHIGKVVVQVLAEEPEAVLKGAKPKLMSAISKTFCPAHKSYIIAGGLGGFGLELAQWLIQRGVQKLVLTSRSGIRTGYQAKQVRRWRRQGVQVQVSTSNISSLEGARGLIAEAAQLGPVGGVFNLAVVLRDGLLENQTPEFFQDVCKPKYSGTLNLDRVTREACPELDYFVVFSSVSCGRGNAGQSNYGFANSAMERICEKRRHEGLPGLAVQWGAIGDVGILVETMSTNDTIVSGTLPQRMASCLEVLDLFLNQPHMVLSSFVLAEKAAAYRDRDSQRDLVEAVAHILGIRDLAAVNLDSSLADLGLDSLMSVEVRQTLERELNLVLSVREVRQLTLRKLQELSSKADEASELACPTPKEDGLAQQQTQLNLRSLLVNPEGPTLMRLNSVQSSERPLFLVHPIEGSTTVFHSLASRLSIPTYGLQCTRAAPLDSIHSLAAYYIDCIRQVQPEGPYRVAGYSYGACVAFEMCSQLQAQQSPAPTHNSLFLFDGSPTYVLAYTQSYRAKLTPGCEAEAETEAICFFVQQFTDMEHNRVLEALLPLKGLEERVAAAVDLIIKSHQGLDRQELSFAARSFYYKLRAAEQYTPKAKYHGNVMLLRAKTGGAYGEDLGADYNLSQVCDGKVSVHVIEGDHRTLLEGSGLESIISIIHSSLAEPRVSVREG
- assay.remarks: FAS thioesterase domain inhibitors, SAR follow-up, biochemical, endpoint fluorescence intensity, powder samples (AID 652164);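 active = IC50 at or below 20 µM; inactive = the rest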
- run.parameters: recombinant FAS-TE, OMFH substrate fluorescence
Choose one outcome from this list and give only that: active, inactive

input: For CCC(CC)C(=O)Nc1nc(-c2ccc(S(=O)(=O)N3CCOCC3)cc2)cs1 , what call appears in the results of this test?
output: active

input: For CCN(CC)S(=O)(=O)c1ccc(-c2csc(NC(=O)C(C)C)n2)cc1 , what call appears in the results of this test?
output: active

input: For CCC(=O)Nc1nc(-c2ccc(S(=O)(=O)N3CCOCC3)cc2)cs1 , what call appears in the results of this test?
output: active

input: For CCCCC(=O)Nc1nc(-c2ccc(S(=O)(=O)N3CCSCC3)cc2)cs1 , what call appears in the results of this test?
output: active

input: For CCCCC(=O)Nc1nc(-c2ccc(S(=O)(=O)N3CCCC3)cc2)cs1 , what call appears in the results of this test?
output: active

Below: the item to evaluate.
input: For O=C(Nc1nc(-c2ccc(S(=O)(=O)N3CCCC3)cc2)cs1)C1CCC1 , what call appears in the results of this test?
output: active
